system: SK-LMS-1; experiment: relative viability vs DMSO control (72 h) (fraction); higher = more viable cells; settings: 10 µM
Each entry falls in a class defined on relative viability; the bands are bin 0 (below 0.4), bin 1 (0.4 to below 0.9), bin 2 (0.9 or more)

compound	measurement-target	class
CO[C@H]1C[C@@H]2CC[C@@H](C)[C@@](O)(O2)C(=O)C(=O)N2CCCC[C@H]2C(=O)O[C@H]([C@H](C)C[C@@H]2CC[C@@H](O)[C@H](OC)C2)CC(=O)[C@H](C)/C=C(\C)[C@@H](O)[C@@H](OC)C(=O)[C@H](C)C[C@H](C)/C=C/C=C/C=C/1C [Rapamycin]	SK-LMS-1	bin 1
C[C@@H](Oc1cc(-c2cnn(C3CCNCC3)c2)cnc1N)c1c(Cl)ccc(F)c1Cl [Crizotinib]	SK-LMS-1	bin 0
Cc1c(F)cc(C(=O)NC2CC2)cc1-c1ccc(C(=O)NCC(C)(C)C)cn1 [Losmapimod]	SK-LMS-1	bin 2
Cc1cccc(-c2[nH]c(CNc3ccccc3F)nc2-c2ccc3ncnn3c2)n1 [Vactosertib]	SK-LMS-1	bin 2
CN(C)C[C@@H]1CCn2cc(c3ccccc32)C2=C(C(=O)NC2=O)c2cn(c3ccccc23)CCO1 [Ruboxistaurin]	SK-LMS-1	bin 1
CCCS(=O)(=O)N[C@H]1C[C@@H](N(C)c2ncnc3[nH]ccc23)C1 [Abrocitinib]	SK-LMS-1	bin 2
COc1cc(OC)cc(N(CCNC(C)C)c2ccc3ncc(-c4cnn(C)c4)nc3c2)c1 [Erdafitinib]	SK-LMS-1	bin 0
CO[C@@H]1[C@H](N(C)C(=O)c2ccccc2)C[C@H]2O[C@]1(C)n1c3ccccc3c3c4c(c5c6ccccc6n2c5c31)C(=O)NC4 [Midostaurin]	SK-LMS-1	bin 0
COc1cc2c(Oc3ccc4[nH]c(C)cc4c3F)ccnc2cc1OCC1(N)CC1 [Anlotinib]	SK-LMS-1	bin 0
